molecular target: T1, serum purified human Complement Factor D (human, UniProt P00746 26-253); experiment: SPR Biacore, antibody on protein A chip, single cycle kinetics, 37 C;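 also: antibodies captured on the protein A surface to roughly 70 RU in HBS-EP+ buffer, with rate and affinity constants fitted using BIAevaluation software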
T1 construct: Serum purified protein flowed over the captured antibodies; also called CFD; human CFD
T1 sequence (P00746 26-253): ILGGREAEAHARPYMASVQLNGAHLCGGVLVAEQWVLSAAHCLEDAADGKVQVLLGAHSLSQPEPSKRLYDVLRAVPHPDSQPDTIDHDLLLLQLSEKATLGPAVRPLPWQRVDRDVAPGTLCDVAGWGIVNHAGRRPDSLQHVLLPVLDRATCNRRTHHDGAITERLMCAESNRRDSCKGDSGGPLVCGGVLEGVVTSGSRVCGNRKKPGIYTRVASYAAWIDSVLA
OBSERVATION_TYPE: Kd (nM)
Report only the number, with the unit nM understood.

Field: example entries. Status: answers known.
binder="34I54I59D / 54R101V (antibody, V domains shown, KCD119 TAF variant) VH: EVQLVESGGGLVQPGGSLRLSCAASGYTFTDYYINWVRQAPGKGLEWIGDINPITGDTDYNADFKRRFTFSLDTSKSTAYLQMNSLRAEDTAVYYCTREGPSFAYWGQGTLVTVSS VL: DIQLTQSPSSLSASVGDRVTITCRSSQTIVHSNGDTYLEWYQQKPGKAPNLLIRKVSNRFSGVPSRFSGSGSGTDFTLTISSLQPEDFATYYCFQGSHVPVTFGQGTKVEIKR" observation_type=Kd recorded_value=0.00808
binder="31S54I59D84S / 54R101V (antibody, V domains shown, also called 31554159D845 / 54R101V) VH: EVQLVESGGGLVQPGGSLRLSCAASGYTFTSYYMNWVRQAPGKGLEWIGDINPITGDTDYNADFKRRFTFSLDTSKSTAYLQMSSLRAEDTAVYYCTREGPSFAYWGQGTLVTVSS VL: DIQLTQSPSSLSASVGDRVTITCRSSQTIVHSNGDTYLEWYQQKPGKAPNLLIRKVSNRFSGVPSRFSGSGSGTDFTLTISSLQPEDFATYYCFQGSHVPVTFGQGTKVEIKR" observation_type=Kd recorded_value=0.00613
binder="31S54I59D / 32W60W101V (antibody, V domains shown, KCD119 TAF variant; full antibody captured on protein A) VH: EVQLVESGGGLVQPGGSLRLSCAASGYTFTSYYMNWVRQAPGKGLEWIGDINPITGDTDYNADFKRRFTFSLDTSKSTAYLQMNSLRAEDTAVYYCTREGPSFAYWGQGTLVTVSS VL: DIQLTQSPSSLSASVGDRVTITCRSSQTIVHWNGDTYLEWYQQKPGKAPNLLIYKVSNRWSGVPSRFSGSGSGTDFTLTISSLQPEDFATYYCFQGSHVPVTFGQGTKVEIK" observation_type=Kd recorded_value=0.0343
binder="31S54V59D / 32W60W101V (antibody, V domains shown, KCD119 TAF variant; full antibody captured on protein A) VH: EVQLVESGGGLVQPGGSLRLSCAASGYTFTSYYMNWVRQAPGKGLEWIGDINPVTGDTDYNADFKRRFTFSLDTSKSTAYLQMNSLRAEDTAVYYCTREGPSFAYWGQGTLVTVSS VL: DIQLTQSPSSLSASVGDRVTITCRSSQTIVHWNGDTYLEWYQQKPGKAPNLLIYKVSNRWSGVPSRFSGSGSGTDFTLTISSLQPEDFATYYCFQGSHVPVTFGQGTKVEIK" observation_type=Kd recorded_value=0.0227

Field: next binder
# Kd (binder: 48V54V59D / 32W60W101V (antibody, V domains shown, KCD119 TAF variant; full antibody captured on protein A) VH: EVQLVESGGGLVQPGGSLRLSCAASGYTFTDYYMNWVRQAPGKGLEWVGDINPVTGDTDYNADFKRRFTFSLDTSKSTAYLQMNSLRAEDTAVYYCTREGPSFAYWGQGTLVTVSS VL: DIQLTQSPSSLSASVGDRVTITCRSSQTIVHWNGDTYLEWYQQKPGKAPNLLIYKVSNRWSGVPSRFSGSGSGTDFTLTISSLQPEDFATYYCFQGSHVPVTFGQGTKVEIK ) is 0.0212
